Measured fold increase in affinity as compared to the WT mouse leptin antagonist of individual entries
- target desc: T1, Recombinant human leptin binding domain (hLBD) (human, UniProt P48357 428-635, biotinylated with Sulfo-NHS-LC-Biotin in the yeast display assays; not labelled when immobilized in the plate binding assay)
- T1 construct: CRH2 sub-domain of the leptin receptor; Prepared in the applicants' laboratory; also called soluble human leptin receptor; CHR2
- T1 sequence (looked up): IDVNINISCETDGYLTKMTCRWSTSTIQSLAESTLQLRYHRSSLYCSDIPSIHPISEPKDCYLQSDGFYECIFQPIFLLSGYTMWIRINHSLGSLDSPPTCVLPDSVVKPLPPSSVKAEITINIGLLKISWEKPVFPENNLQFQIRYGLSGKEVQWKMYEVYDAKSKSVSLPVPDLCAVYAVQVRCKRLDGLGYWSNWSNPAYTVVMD
- procedure details: competitive plate binding assay: immobilized hLBD, biotinylated mouse leptin as ligand, mutein as competitor
Write it as a number; the unit fold goes unstated.

>>> val("mouse leptin antagonist D23R/L39A/D40A/F41A (ligand, mature; also called D23R MLA) AVPIQKVQDDTKTLIKTIVTRINRISHTQSVSAKQRVTGAAAIPGLHPILSLSKMDQTLAVYQQVLTSLPSQNVLQIANDLENLRDLLHLLAFSKSCSLPQTSGLQKPESLDGVLEASLYSTEVVALSRLQGSLQDILQQLDVSPEC")
51
>>> val("mouse leptin antagonist D23H/L39A/D40A/F41A (ligand, mature; also called H30 (antagonist); D23H MLA) AVPIQKVQDDTKTLIKTIVTRINHISHTQSVSAKQRVTGAAAIPGLHPILSLSKMDQTLAVYQQVLTSLPSQNVLQIANDLENLRDLLHLLAFSKSCSLPQTSGLQKPESLDGVLEASLYSTEVVALSRLQGSLQDILQQLDVSPEC")
34
>>> val("mouse leptin antagonist D23W/L39A/D40A/F41A (ligand, mature) AVPIQKVQDDTKTLIKTIVTRINWISHTQSVSAKQRVTGAAAIPGLHPILSLSKMDQTLAVYQQVLTSLPSQNVLQIANDLENLRDLLHLLAFSKSCSLPQTSGLQKPESLDGVLEASLYSTEVVALSRLQGSLQDILQQLDVSPEC")
36

// returns reported fold increase in affinity as compared to the WT mouse leptin antagonist for input mouse leptin antagonist D23A/L39A/D40A/F41A (ligand, mature) AVPIQKVQDDTKTLIKTIVTRINAISHTQSVSAKQRVTGAAAIPGLHPILSLSKMDQTLAVYQQVLTSLPSQNVLQIANDLENLRDLLHLLAFSKSCSLPQTSGLQKPESLDGVLEASLYSTEVVALSRLQGSLQDILQQLDVSPEC
21
